B1: BRF1 (parent)
chain: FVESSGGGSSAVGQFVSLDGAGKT

# Variants of: B1
# method-summary: protein stability index of a GFP-peptide fusion (GPS, HEK-293T) (PSI 1-6); higher = more stable;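 also: lentivirally expressed fusions sorted by FACS into six bins by GFP to DsRed ratio, PSI derived from sequencing read proportions per bin multiplied by bin number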
# assay-context: c terminus: a fixed tail appended
measurement-label: protein stability index
// no unit, no text: just the number

| sequence-change | protein stability index |
| --- | --- |
| G20Q | 3.03 |
| G20L | 2.58 |
| D19W | 3.02 |
| T24E | 2.3 |
| S9N | 2.38 |

Moving on to the next variant.
Record G6H , field protein stability index: 1.74

src = the supplement of paper PMC10567573
